These data points were gathered from BigSolDB 2.1.

ASSAY SETUP: in n-propanol, 313.15 K
QUANTITY NAME: solubility (mole fraction)

| COMPOUND SMILES | NUMERIC READOUT |
| --- | --- |
| Cc1occc(=O)c1O | 0.0233 |

----------
ASSAY SETUP: in n-butyl acetate, 313.15 K
QUANTITY NAME: solubility (mole fraction)

| COMPOUND SMILES | QUANTITY NAME | NUMERIC READOUT |
| --- | --- | --- |
| Cc1occc(=O)c1O | solubility (mole fraction) | 0.0229 |

----------
ASSAY SETUP: in acetonitrile, 323.15 K

| COMPOUND SMILES | solubility (mole fraction) |
| --- | --- |
| Cc1occc(=O)c1O | 0.0325 |
